src = patent US20170066831A1

# TARGET_DESC: T1, cynomolgus (Macaca fascicularis) ST2L extracellular domain with C-terminal His6 tag (Macaca fascicularis (cynomolgus), UniProt Q01638 19-321 (human entry))
# T1 construct: also called cyno ST2L-ECD; cynoST2L-ECD
# T1 chain: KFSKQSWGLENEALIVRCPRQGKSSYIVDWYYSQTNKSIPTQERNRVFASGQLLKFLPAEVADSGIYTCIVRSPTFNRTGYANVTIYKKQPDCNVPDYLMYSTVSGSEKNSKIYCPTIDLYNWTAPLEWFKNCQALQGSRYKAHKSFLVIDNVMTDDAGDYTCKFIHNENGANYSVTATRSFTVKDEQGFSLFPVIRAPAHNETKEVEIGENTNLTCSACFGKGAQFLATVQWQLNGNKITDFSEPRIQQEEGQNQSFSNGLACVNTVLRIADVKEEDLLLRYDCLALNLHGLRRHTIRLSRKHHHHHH
# ASSAY_PROTOCOL: ProteOn SPR, mAb captured, ST2L-ECD in solution
PARAMETER_MEASURED: koff (s⁻¹)
One number for each entry, in s⁻¹.

Each of the following entries comes with a recorded value; kindly state koff for each.
1. STLM197 (antibody, V domains shown, C2494 HFA mAb: VH STLH194 (IGHV1-f*01) + VL STLL280 (O12b)) VH: EVQLVQSGAEVKKPGATVKISCKVSAFNIKDDYMHWVQQAPGKGLEWMGRIDPAIGNTEYAEKFQGRVTITADTSTDTAYMELSSLRSEDTAVYYCATGDFYAMDYWGQGTLVTVSS VL: DIQMTQSPSSLSASVGDRVTITCITNTDIDDVIHWYQQKPGKAPKLLIYEGNTLRPGVPSRFSGSGSGTDFTLTISSLQPEDFATYYCLQSDNLLTFGQGTKLEIK
2. STLM192 (antibody, V domains shown, C2494 HFA mAb: VH STLH195 + VL STLL275 (L5)) VH: QVQLVQSGAEVKKPGASVKVSCKVSAFNIKDDYMHWVRQAPGKGLEWMGRIDPAIGNTEYAPKFQDRVTMTEDTSTDTAYMELSSLRSEDTAVYYCATGDFYAMDYWGQGTLVTVSS VL: DIQMTQSPSSVSASVGDRVTITCITNTDIDDVIHWYQQKPGKAPKLLIYEGNTLRPGVPSRFSGSGSGTDFTLTISSLQPEDFATYYCLQSDNMLTFGQGTKLEIK

[0.00688, 0.0999]
